Test System: Cytochrome P450 2D6 (Homo sapiens) (UniProt P10635)
Sequence (P10635 whole entry, looked up): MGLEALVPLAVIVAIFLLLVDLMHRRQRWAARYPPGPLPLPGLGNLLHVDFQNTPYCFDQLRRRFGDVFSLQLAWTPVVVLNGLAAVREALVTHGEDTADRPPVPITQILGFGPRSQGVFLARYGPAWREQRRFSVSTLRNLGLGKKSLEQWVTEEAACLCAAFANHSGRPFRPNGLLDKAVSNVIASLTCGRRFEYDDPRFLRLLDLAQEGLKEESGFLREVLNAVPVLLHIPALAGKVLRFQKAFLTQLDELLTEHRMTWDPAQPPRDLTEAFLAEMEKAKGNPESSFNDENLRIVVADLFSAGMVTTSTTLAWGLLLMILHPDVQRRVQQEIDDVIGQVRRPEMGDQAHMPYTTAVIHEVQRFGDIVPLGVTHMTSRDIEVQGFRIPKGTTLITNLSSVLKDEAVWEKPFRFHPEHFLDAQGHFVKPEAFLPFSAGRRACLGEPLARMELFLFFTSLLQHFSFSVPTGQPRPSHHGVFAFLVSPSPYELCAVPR
Protocol Notes: Cytochrome panel assay with activity outcomes
Condition Description: recombinant CYP, pro-luciferin dealkylation, luminescence, p450-cyp2d6; series mostly up to 57.1 µM
Among all 16,000 compounds or so, about 2,600 (16%) were called active. Roughly 20% stayed inconclusive and do not appear here. These entries were drawn from the full list.
Observed Property: AC50

Guide cases for AC50, answers given:
COc1ccc(C(=O)n2c(SC)nc3cc4c(cc32)OCCO4)cc1; inactive
COc1cccc(Cn2c(=O)c(-c3cccs3)nc3cnc(N(C)C)nc32)c1; inactive
O=C(O)/C=C\c1cnc[nH]1; inactive
C[C@@](N)(Cc1ccc(O)cc1)C(=O)O; inactive
CCOC(=O)c1nc2sc(C)c(C)c2c(=O)[nH]1; inactive

Now for another entry.
Give the reported AC50 for this compound. CCSC1=C(C#N)C2(CCCCC2)C(C#N)=C(N)N1 15.8 µM (active)

Data origin: PubChem BioAssay AID1851
